Every entry's value here was drawn from ChEMBL document CHEMBL3988442.

For each of the compounds below, state its Percent Effect.
Tested on: Wolbachia pipientis
Experiment: Anti-Wolbachia Cell-Based Screen
Type: functional
Design: scale not given: in the data most compounds retested in dose-response had high values
Conditions: 5 µM
Screen size: about 48,000 compounds; about 13,000 (27%) showed an effect of 50% or more. Some of the results follow.
Numbers only, in %.

Worked examples, 5 compounds total:
> print(dat)
                                   compound  readingunit   value
1       Cc1nc(CN2CCCN(C(=O)COCC3CC3)CC2)cs1            %   18.11
2  CN(C)[C@H]1CN(C(=O)c2ccc3sc4c(c3c2)CCNC4=O)C[C@@H]1O            %   13.68
3  CN(C)[C@@H]1CN(C(=O)c2cc3cccc(F)c3[nH]2)C[C@H]1O            %   116.9
4  Cc1ccc2cc(C(=O)N3CCS(=O)(=O)CC3)[nH]c2c1            %  -4.814
5  CN1CCN([C@@H]2CN(C(=O)c3cc4ccc(F)cc4[nH]3)C[C@H]2O)CC1            %   68.22

For each of the compounds below, state Percent Effect.
1. Cc1nc(CN2CCCC(c3nccs3)C2)cs1 (stereo unspecified)
2. Cc1cc2c(c(-c3c[nH]c(C)n3)c1)OC(CN)C2 (stereo unspecified)

1: 114.8; 2: 10.27

For each of the compounds below, state Percent Effect.
1. CC(C)c1nc2n(n1)CC(NCc1nnc(-c3ccco3)o1)CC2 (stereo unspecified)
2. O=C(NCc1cc(N2CCOCC2)ncn1)c1cccc(CO)n1
3. Cc1nc(CN2C[C@@H]3CN(C(=O)c4cnccn4)C[C@@H]3C2=O)cs1
4. COCCNC(=O)NCC(C)c1ccccc1OC (stereo unspecified)

[-6.468, -9.818, 9.269, -10.13]

---

System: Wolbachia pipientis
Experiment: Anti-Wolbachia Cell-Based Screen
Assay type: functional
Design: scale not given: in the data most compounds retested in dose-response had high values
Conditions: 5 µM
About 13,000 (27%) of roughly 48,000 compounds showed an effect of 50% or more. Some of the results follow.
observationType: Percent Effect (%)
Numbers only, in %.

> print(dat)
                                   compound  readingunit   value
1  Cc1cc(C)n(C2CCN(S(=O)(=O)N3CCC(C)CC3)CC2)n1            %   84.26
2  CCc1cnc(NCC(c2cccnc2)N2CCOCC2)nc1 (stereo unspecified)            %    1.67
3  Cc1cc(C2CCCN(CCc3ccccn3)C2)n[nH]1 (stereo unspecified)            %   -3.98
4        CN1CCOC[C@H]1c1nc(-c2cccnc2)c[nH]1            %  -3.029
5  Cc1cc(C)n(C2CN(CC(=O)NCC(C)(C)N3CCOCC3)C2)n1            %   4.363

For each of the compounds below, state Percent Effect.
1. Cc1cc(C)n(C2CCN(S(=O)(=O)N3CCOCC3)CC2)n1
2. CC(Sc1nncn1C)C(=O)NCCCOc1ccc(F)cc1 (stereo unspecified)
3. COc1ccc(S(=O)(=O)NCC(O)c2sccc2C)cc1Cl (stereo unspecified)

1. 108
2. 7.065
3. 7.194

For each of the compounds below, state Percent Effect.
1. CCC(C)NC(=O)c1ccc(CNC(=O)CCC(C)C)cc1 (stereo unspecified)
2. CC(C)NC(=O)[C@@H]1CC[C@@H]2[C@@H](CCN2Cc2cn(C)c3ccccc23)O1.O=C(O)C(F)(F)F
3. Cc1cc(C)n(C2CCCN(C(=O)C3=NN(C)C(=O)CC3)C2)n1 (stereo unspecified)

19.34
-4.98
-1.412
